target: Vasoactive intestinal polypeptide receptor 1 (Homo sapiens); format: cell membranes, Membrane; settings: ht-29; further: in other assays of this panel Not Active means under 50% inhibition at 10 µM
Sequence (P32241 whole entry): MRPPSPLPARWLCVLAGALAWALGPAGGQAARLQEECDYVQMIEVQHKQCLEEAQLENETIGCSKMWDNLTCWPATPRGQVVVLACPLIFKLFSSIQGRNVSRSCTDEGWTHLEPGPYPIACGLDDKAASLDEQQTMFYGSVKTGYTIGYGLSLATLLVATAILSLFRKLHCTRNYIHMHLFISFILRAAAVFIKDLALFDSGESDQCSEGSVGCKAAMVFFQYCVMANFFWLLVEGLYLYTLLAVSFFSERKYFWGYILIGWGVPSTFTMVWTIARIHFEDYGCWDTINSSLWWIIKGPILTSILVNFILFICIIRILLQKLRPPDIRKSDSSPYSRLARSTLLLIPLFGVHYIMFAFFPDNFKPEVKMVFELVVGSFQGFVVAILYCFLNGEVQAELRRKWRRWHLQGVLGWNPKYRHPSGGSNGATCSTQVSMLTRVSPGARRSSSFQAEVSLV
measurement-name: IC50

Example entries and their recorded answers appear below.
compound	IC50
COc1ccc(C[C@H](N)C(=O)N[C@H]2[C@@H](O)[C@H](n3cnc4c(N(C)C)ncnc43)O[C@@H]2CO)cc1 [PUROMYCIN]	Not Active
CC(CN1c2ccccc2Sc2ccccc21)N(C)C (stereo not drawn) [PROMETHAZINE]	Not Active
CC(C)Cn1cnc2c(N)nc3ccccc3c21 [IMIQUIMOD]	Not Active
OC[C@H]1OC2C3[C@@H](CO)OC(O[C@H]4[C@H](O)[C@@H](O)[C@@H](O[C@H]5[C@H](O)[C@@H](O)[C@@H](O[C@H]6[C@H](O)[C@@H](O)[C@@H](O[C@H]7[C@H](O)[C@@H](O)[C@@H](O[C@H]8[C@H](O)[C@@H](O)[C@@H](O[C@H]9[C@H](O)[C@@H](O)C(OC1[C@H](O)[C@H]2O)O[C@@H]9CO)O[C@@H]8CO)O[C@@H]7CO)O[C@@H]6CO)O[C@@H]5CO)O[C@@H]4CO)[C@H](O)[C@H]3O	Not Active
C[N+](C)(C)CCOP(=O)([O-])OC[C@H](O)CO	Not Active
C[C@H]1C[C@H]2[C@@H]3CCC4=CC(=O)C=C[C@]4(C)[C@@]3(F)[C@@H](O)C[C@]2(C)[C@@]1(O)C(=O)CO [BETAMETHASONE]	Not Active
Cc1cc(C(C)(C)C)c(O)c(C)c1CC1=NCCN1 [OXYMETAZOLINE]	Not Active
CCOc1cc(N)c(Cl)cc1C(=O)NCC1CN(Cc2ccc(F)cc2)CCO1 (stereo not drawn) [MOSAPRIDE]	Not Active

Fill in IC50 for record CCN1C[C@]2(COC)[C@H](O)C[C@H](OC)[C@@]34[C@@H]5C[C@@]6(O)[C@H](OC(=O)c7ccccc7)[C@@H]5[C@@](OC(C)=O)([C@@H]([C@H](OC)[C@H]23)[C@@H]14)[C@@H](O)[C@@H]6OC [ACONITINE]
Not Active

Fill in IC50 for record COc1ccccc1OCCNCC(O)COc1cccc2[nH]c3ccccc3c12 (stereo not drawn) [CARVEDILOL]
Not Active

Fill in IC50 for record CC(=O)Nc1ccc2c(c1)Cc1ccccc1-2 [2-ACETYLAMINOFLUORENE]
Not Active

Fill in IC50 for record C[N+](C)(C)CCOC(N)=O.[Cl-] [CARBACHOL]
Not Active

Fill in IC50 for record C[N+]1(C)[C@@H]2C[C@@H](OC(=O)[C@H](CO)c3ccccc3)C[C@H]1[C@@H]1O[C@@H]12.[Br-] [METHSCOPOLAMINE BROMIDE]
Not Active

---

experiment: DRUGMATRIX: Imidazoline I2, Central radioligand binding (ligand: [3H] Idazoxan); assay type: cell membranes, Rattus norvegicus, Wistar, Cerebral cortex, Membrane; details: Not Active = under 50% inhibition at 10 µM; read-out: Ki
measurement-name: Ki (nM)
Write it as a number; the unit nM goes unstated.

Fill in Ki for record Cc1cc(C(C)(C)C)c(O)c(C)c1CC1=NCCN1
18

Fill in Ki for record CCN(CC)CCNC(=O)c1cc(Cl)c(N)cc1OC [METOCLOPRAMIDE]
472

Fill in Ki for record CC(CN1c2ccccc2Sc2ccccc21)N(C)C (configuration not stated)
1330

Fill in Ki for record COc1ccccc1OCCNCC(O)COc1cccc2[nH]c3ccccc3c12 (configuration not stated)
1280

Fill in Ki for record CN1C[C@H](CNC(=O)OCc2ccccc2)C[C@@H]2c3cccc4c3c(cn4C)C[C@H]21
1280

Fill in Ki for record CNC[C@H](O)c1ccc(O)c(O)c1 [EPINEPHRINE]
154

Fill in Ki for record CCN(CCO)CCCC(C)Nc1ccnc2cc(Cl)ccc12 (configuration not stated) [HYDROXYCHLOROQUINE]
319

---

assay: DRUGMATRIX: Glutamate, Kainate radioligand binding (ligand: [3H] Kainic acid); type: cell membranes, Rattus norvegicus, Wistar, Brain, Membrane; conditions: Not Active = under 50% inhibition at 10 µM
measurement-name: Ki

molecule	test-value
Cl.NC[C@H]1CC[C@H](C(=O)Oc2ccc(CCC(=O)O)cc2)CC1 [CETRAXATE HYDROCHLORIDE]	Not Active
CC(=O)O[C@]1(C(C)=O)CC[C@H]2[C@@H]3C[C@H](C)C4=CC(=O)CC[C@]4(C)[C@H]3CC[C@@]21C [MEDROXYPROGESTERONE ACETATE]	Not Active
Nc1nc(F)nc2c1ncn2[C@@H]1O[C@H](CO)[C@@H](O)[C@@H]1O	Not Active

---

target: C-C chemokine receptor type 2 (Homo sapiens, UniProt P41597); format: cell membranes, CHO-K1, Membrane; details: cho-k1; further: in other assays of this panel Not Active means under 50% inhibition at 10 µM
Sequence (P41597 whole entry): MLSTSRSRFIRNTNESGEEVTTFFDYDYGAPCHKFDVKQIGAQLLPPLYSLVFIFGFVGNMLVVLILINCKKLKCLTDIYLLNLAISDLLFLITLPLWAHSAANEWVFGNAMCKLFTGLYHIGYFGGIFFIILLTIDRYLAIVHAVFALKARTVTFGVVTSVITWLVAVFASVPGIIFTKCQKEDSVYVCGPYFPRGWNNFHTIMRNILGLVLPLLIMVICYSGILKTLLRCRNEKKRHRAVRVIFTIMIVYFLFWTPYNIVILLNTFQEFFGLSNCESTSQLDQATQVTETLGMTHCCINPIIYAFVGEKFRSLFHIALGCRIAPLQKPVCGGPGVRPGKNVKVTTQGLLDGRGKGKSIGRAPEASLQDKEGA
measurement-name: IC50

Example entries and their recorded answers appear below.
compound	experimental-target	test-value
CCOC(=O)C1=C(C)NC(C)=C(C(=O)OCC)C1c1ccccc1/C=C/C(=O)OC(C)(C)C	C-C chemokine receptor type 2 (Homo sapiens, UniProt P41597)	Not Active
C[C@@H]1[C@H](O)[C@@H](C)/C=C/C=C/C=C/C=C/C=C/C=C/C=C/[C@H](O[C@@H]2O[C@H](C)[C@@H](O)[C@H](N)[C@@H]2O)C[C@@H]2O[C@](O)(C[C@@H](O)C[C@@H](O)[C@H](O)CC[C@@H](O)C[C@@H](O)CC(=O)O[C@H]1C)C[C@H](O)[C@H]2C(=O)O	C-C chemokine receptor type 2 (Homo sapiens, UniProt P41597)	Not Active
C[N+](C)(C)CCOP(=O)([O-])OC[C@H](O)CO	C-C chemokine receptor type 2 (Homo sapiens, UniProt P41597)	Not Active
C#C[C@]1(O)CC[C@H]2[C@@H]3CCC4=CC(=O)CC[C@@H]4[C@H]3CC[C@@]21C	C-C chemokine receptor type 2 (Homo sapiens, UniProt P41597)	Not Active
CCN(CCO)CCCC(C)Nc1ccnc2cc(Cl)ccc12 (stereo not given) [HYDROXYCHLOROQUINE]	C-C chemokine receptor type 2 (Homo sapiens, UniProt P41597)	Not Active

Fill in IC50 for record c1ccc(Cn2ccnc2)cc1
Not Active

Fill in IC50 for record O=C(O)c1cc(/N=N/c2ccc(S(=O)(=O)Nc3ccccn3)cc2)ccc1O
Not Active

Fill in IC50 for record CNCCCC12CCC(c3ccccc31)c1ccccc12
Not Active

Fill in IC50 for record CC(C)(C#N)c1cc(Cn2cncn2)cc(C(C)(C)C#N)c1
Not Active

Fill in IC50 for record CN1C(=O)OC(C)(C)C1=O
Not Active

Fill in IC50 for record C=CCc1ccc2c(c1)OCO2
Not Active

Fill in IC50 for record COc1cc(NC(C)CCCN)c2ncccc2c1 (stereo not given)
Not Active

Fill in IC50 for record OC[C@H]1O[C@@H]2O[C@H]3[C@H](O)[C@@H](O)[C@@H](O[C@H]4[C@H](O)[C@@H](O)[C@@H](O[C@H]5[C@H](O)[C@@H](O)[C@@H](O[C@H]6[C@H](O)[C@@H](O)[C@@H](O[C@H]7[C@H](O)[C@@H](O)[C@@H](O[C@H]1[C@H](O)[C@H]2O)O[C@@H]7CO)O[C@@H]6CO)O[C@@H]5CO)O[C@@H]4CO)O[C@@H]3CO
Not Active

Fill in IC50 for record C#C[C@]1(O)CC[C@H]2[C@@H]3[C@H](C)CC4=C(CCC(=O)C4)[C@H]3CC[C@@]21C
Not Active

Fill in IC50 for record CN(Cc1cc(Br)cc(Br)c1N)C1CCCCC1
Not Active

---

test: DRUGMATRIX: Phorbol Ester radioligand binding (ligand: [3H] PDBu); format: cell membranes, Mus musculus, ICR, Brain, Membrane; conditions: Not Active = under 50% inhibition at 10 µM
measurement-name: Ki

Example entries and their recorded answers appear below.
compound	measurement-name	test-value
NS(=O)(=O)c1cc(C(=O)O)c(NCc2ccco2)cc1Cl [FUROSEMIDE]	Ki	Not Active
Nc1nc(N)c2nc(-c3ccccc3)c(N)nc2n1	Ki	Not Active
O=C1CN(/N=C/c2ccc([N+](=O)[O-])o2)C(=O)N1 [NITROFURANTOIN]	Ki	Not Active
Cc1cc(C(C)(C)C)c(O)c(C)c1CC1=NCCN1 [OXYMETAZOLINE]	Ki	Not Active
O=C1CC[C@@]2(O)[C@H]3Cc4ccc(O)c5c4[C@@]2(CCN3CC2CC2)[C@H]1O5 [NALTREXONE]	Ki	Not Active
CCN1CCN(C(=O)N[C@@H](C(=O)N[C@@H]2C(=O)N3[C@@H]2SC(C)(C)[C@@H]3C(=O)O)c2ccccc2)C(=O)C1=O [PIPERACILLIN]	Ki	Not Active

Fill in Ki for record O=C(O)c1ccccc1 [BENZOIC ACID]
Not Active

Fill in Ki for record COC(=O)Nc1nc2ccc(C(=O)c3ccccc3)cc2[nH]1 [MEBENDAZOLE]
Not Active

Fill in Ki for record CCN1CCN(c2cc3c(cc2F)c(=O)c(C(=O)O)cn3C2CC2)CC1 [ENROFLOXACIN]
Not Active

Fill in Ki for record CN(Cc1cc(Br)cc(Br)c1N)C1CCCCC1 [BROMHEXINE]
Not Active

Fill in Ki for record CCC1(c2ccccc2)C(=O)NC(=O)NC1=O [PHENOBARBITAL]
Not Active

Fill in Ki for record Cc1ccnc(NS(=O)(=O)c2ccc(N)cc2)n1 [SULFAMERAZINE]
Not Active

Fill in Ki for record CC[C@H]1OC(=O)[C@H](C)[C@@H](O[C@H]2C[C@@](C)(OC)[C@@H](O)[C@H](C)O2)[C@H](C)[C@@H](O[C@@H]2O[C@H](C)C[C@H](N(C)C)[C@H]2O)[C@](C)(O)C[C@@H](C)C(=O)[C@H](C)[C@@H](O)[C@]1(C)O [ERYTHROMYCIN]
Not Active

Fill in Ki for record O=[As][O-].[Na+] [SODIUM ARSENITE]
Not Active

Fill in Ki for record CC(C)NCC(O)COc1ccc(CC(N)=O)cc1 (stereo not drawn) [ATENOLOL]
Not Active

Fill in Ki for record NC(=O)CN1CCCC1=O
Not Active

Fill in Ki for record CCO [ALCOHOL]
Not Active
